Assay: Mean residence time in ICR mouse at 0.1 mg/kg, iv administered as cassette dose
Format: ADME, organism-based
Conditions: in vivo
Documented MRT across a set of compounds

[
  {
    "sampleSmiles": "CCOc1cc(CN2CC3(CC(N4CCC(C)(C(=O)O)CC4)=NO3)C2)cc(C2CC2)c1-c1ccc(F)cc1",
    "MRT": "1.44 h"
  },
  {
    "sampleSmiles": "CCOc1c(CN2CC3(CC(N4CCC(C)(C(=O)O)CC4)=NO3)C2)cc(C2CC2)c(-c2ccc(F)cc2)c1Cl",
    "MRT": "2.88 h"
  },
  {
    "sampleSmiles": "CCOc1cc(CN2CC3(CC(N4CCC(CC)(C(=O)O)CC4)=NO3)C2)cc(OCC)c1-c1ccc(F)cc1",
    "MRT": "1.72 h"
  }
]
